assay: IV/PO pharmacokinetics (NHP); assay type: in vivo; conditions: cynomolgus monkey, plasma; NHP (cyno), 3 mg/kg po
METRIC NAME: AUC (µM·h)
Write the number in µM·h without appending the unit.

Report AUC, nothing else, for this compound: Cn1cc2c(-c3cc(F)c(CN4Cc5ncccc5C4=O)c(F)c3)ccc(C(C)(C)O)c2n1 12.4

----------
experiment: 14-day rat toxicology and toxicokinetic study; assay type: in vivo; conditions: both sexes, rat, plasma, po, 30 mg/kg, Day 1, 30 mg/kg PO, PEG-400, rat
METRIC NAME: AUC(0-t) (µM·h)
Write the number in µM·h without appending the unit.

Report AUC(0-t), nothing else, for this compound: Cn1cc2c(-c3cc(F)c(CN4Cc5ncccc5C4=O)c(F)c3)ccc(C(C)(C)O)c2n1 224
